measurementKind: melting point (°C)

Return reported melting point. Input compound: "CNS(=O)(=O)c1sc(N(CCCN2CCN(C)CC2)C(=O)Nc2ccc(-c3ccccc3)cc2)nc1C"
188

Using the record for "CCOc1ccc(NC(=O)N(Cc2ccccn2)c2nc(C)c(S(=O)(=O)NC)s2)cc1" , state its measured melting point.
194

# return recorded melting point for input "CCOc1ccc(NC(=O)N(CCCCO)c2nc(C)c(S(=O)(=O)NC)s2)cc1"
164

---

measurementKind: melting point (°C)

Solved cases below.
Please list melting point recorded for the molecule "CNS(=O)(=O)c1sc(N(C)C(=O)Nc2ccc(-c3ccccc3)cc2)nc1C"
210

Give me measured melting point, please, for this molecule: "CCc1nc(N(CCCO)C(=O)Nc2ccc(N3CCOCC3)cc2)sc1S(=O)(=O)NC"
169

Give me measured melting point, please, for this molecule: CN(C(=O)Nc1ccc(N2CCOCC2)cc1)c1nc(Cl)c(S(=O)(=O)N(C)C)s1 [3]
197

Return value of melting point for input "Cc1nc(N(C)C(=O)Nc2ccc(N3CCOCC3)cc2)sc1S(=O)(=O)N1CCCCC1" , no commentary.
206

Complete the entry with melting point for "CNS(=O)(=O)c1sc(N(C)C(=O)Nc2ccc(-c3ccccc3C)cc2C)nc1C"
148

(P) Cc1nc(N(C)C(=O)Nc2ccc(N3CCCC3)cc2)sc1S(=O)(=O)NCC1CC1
(Q) Cc1nc(N(CCN(C)C)C(=O)Nc2ccc(N3CCOCC3)cc2)sc1S(N)(=O)=O
Given the listed items, does P or Q have the lesser reported melting point? Response format: the label of the selected entry.
Q
(Q: 123 °C, P: 205 °C)

---

measurementKind: melting point (°C)

Below: 2 compounds and their reported melting point.
Complete the entry with melting point for "Cc1nc(N(Cc2ccncc2)C(=O)Nc2ccc(N3CCOCC3)cc2)sc1S(N)(=O)=O"
186

Identify melting point associated with the compound "CNS(=O)(=O)c1sc(N(CCCN(C)C)C(=O)Nc2ccc(-c3ccccc3)cc2)nc1C"
196

(1) CCOc1ccc(NC(=O)N(C)c2nc(Cl)c(S(=O)(=O)NCN3CCCCC3)s2)cc1
(2) CCOc1ccc(N(C)C(=O)Nc2nc(C)c(S(=O)(=O)N(C)C)s2)cc1
Hey, between 1 and 2 which has a smaller measured melting point? Your answer should be the label of the entry you select.
2
(2: 118 °C, 1: 183 °C)

(A) CCCNS(=O)(=O)c1sc(N(CCC)C(=O)Nc2ccc(-c3ccccc3)cc2)nc1C
(B) CCOc1ccc(NC(=O)N(C)c2nc(C)c(S(N)(=O)=O)s2)cc1
Hi! Which is lower in terms of melting point, the first one A or the second one B ? State your choice using its label.
A

(I) CCCOc1ccc(NC(=O)N(C)c2nc(C)c(S(=O)(=O)N(C)C)s2)cc1
(II) CC(=O)Nc1cccc(Oc2ccc(NC(=O)N(C)c3nc(Cl)c(S(=O)(=O)N(C)C)s3)cc2)c1
// pick min by melting point: I , II Identify your selection by its label.
I

(A) CCOc1ccc(NC(=O)N(CC2CCCO2)c2nc(C)c(S(=O)(=O)NC)s2)cc1 (stereo not shown)
(B) Cc1nc(N(C)C(=O)Nc2ccc(N3CCOCC3)cc2)sc1S(=O)(=O)NCc1ccccc1
Hi team, can someone confirm which has the larger melting point: A or B ? Thanks. Answer by quoting the chosen item's label.
B
